Catalogue of pKd readings, one per entry.
Biological target: T1, full-length hANGPTL4 (amino acid residues 26-406 of SEQ ID NO:476) with a C-terminal hexa-histidine tag (human, UniProt Q9BY76 26-406)
T1 construct: also called hANGPTL4-His; hANGPTL4(26-406)-His
T1 sequence: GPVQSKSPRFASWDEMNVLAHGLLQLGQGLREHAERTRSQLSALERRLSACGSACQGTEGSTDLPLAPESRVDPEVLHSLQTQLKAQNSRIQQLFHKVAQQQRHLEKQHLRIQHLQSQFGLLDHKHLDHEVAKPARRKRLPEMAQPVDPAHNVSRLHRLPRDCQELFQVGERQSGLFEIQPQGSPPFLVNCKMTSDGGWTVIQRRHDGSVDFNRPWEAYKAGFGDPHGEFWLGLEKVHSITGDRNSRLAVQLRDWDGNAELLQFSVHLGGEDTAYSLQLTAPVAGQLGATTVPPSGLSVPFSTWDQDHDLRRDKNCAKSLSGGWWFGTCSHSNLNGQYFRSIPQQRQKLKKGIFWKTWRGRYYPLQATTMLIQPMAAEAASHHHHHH
Test: SPR (Biacore), 25° C., pH 7.2, antigen amino-coupled 450 RU
As a rule, pKd stands for the negative log10 of the concentration, concentration in M.

H1H268P Fab fragment (Fab, V domains shown, Fab made by papain digestion of H1H268P (IgG1); also called H1H268 Fab) VH: QVQLQESGAGLLKPSETLSLTCTVYGGSFSIHHWTWIRHPPGKGLEWIGEINHRGSTNYNPSLKSRVTISIDTSKNQFSLKLSAVTAADTAVYYCARGLRFLDWLSSYFDYWGQGTLVTVSS VL: DIQMTQSPSSLSASVGDRVTITCRASQGISDYLAWYQQKPGKVPNLLIYAASALQSGVPSRFSGSGSGTDFTLTISSLQPEDVATYYCQNYNTAPLTFGGGTKVEIK: 7.79
H1H284P Fab fragment (Fab, V domains shown, Fab made by papain digestion of H1H284P (IgG1); also called H1H284 Fab) VH: QVQLVESGGGVVQPGRSLRLSCAASGFTFSSYGMHWVRQAPGKGLEWMAVISFDGGNKNNADSVKGRFTISRDNSKNTLYLQMNSLRAEDTAVYYCAKEGDRSGHPYFYYYGLDVWGQGTTVTVS VL: DIQLTQSPSFLSASVGDRVTITCWASQGISSYLAWYQQKPGKAPKLLIYAASTLQSGVPSRFSGSGSETEFTLTISSLQPEDFATYYCQQLHSYPLTFGGGTKVEIK: 9.51

Continue with the binder presented below.
# input pKd lookup needed for H1H268P (antibody, V domains shown, also called entire H1H268 mAb; Full mAb) VH: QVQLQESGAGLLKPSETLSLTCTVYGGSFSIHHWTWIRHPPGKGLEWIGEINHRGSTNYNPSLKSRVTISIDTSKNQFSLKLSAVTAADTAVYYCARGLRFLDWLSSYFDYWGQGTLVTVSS VL: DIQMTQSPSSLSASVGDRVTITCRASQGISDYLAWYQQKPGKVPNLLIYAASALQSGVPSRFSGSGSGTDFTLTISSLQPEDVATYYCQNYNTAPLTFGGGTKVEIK , thanks.
# output 9.39
